test: Electrical activity assay on cell lines treated with a given drug. DMSO was used as a vehicle and a control, unblinded dofetilide was used as a control.; format: ADME, cell-based; design: unit not given here; details: human, ipsc-cm, 0.01 µM; concentration (um) 0.01 uM
Quantity measured: FPDc
Lab note: jot down the number only; don't add units.

For record COc1cc2c(Nc3ccc(Br)cc3F)ncnc2cc1OCC1CCN(C)CC1 [VANDETANIB] the listed FPDc is 55.57

Just so you know, measured FPDc for C[S+](C)[O-] [DIMETHYL SULFOXIDE] came out at 50.28

Value of measured FPDc for the entry COc1ccc(CCN2CCC(Nc3nc4ccccc4n3Cc3ccc(F)cc3)CC2)cc1 [ASTEMIZOLE] : 53.23

The measured FPDc associated with COc1ccc(CCN(C)CCCC(C#N)(c2ccc(OC)c(OC)c2)C(C)C)cc1OC (centres undefined) [VERAPAMIL] reads 54.23

* * *

assay: Electrical activity assay on cell lines treated with a given drug. DMSO was used as a vehicle and a control, unblinded dofetilide was used as a control.; type: ADME, cell-based; design: unit not given here; conditions: human, ipsc-cm, 100 µM; concentration (um) 100 uM
Kindly state FPDc for each of the entries shown.
Reply briefly: the number, and no unit.

Notebook: Cc1cccc(C)c1OCC(C)N (centres undefined) , FPDc read as 63.72

Sample COc1ccccc1OCC(O)CN1CCN(CC(=O)Nc2c(C)cccc2C)CC1 (centres undefined) ; FPDc observed: 47.75

Lab note: CC(C)N(CCC(C(N)=O)(c1ccccc1)c1ccccn1)C(C)C (centres undefined) [DISOPYRAMIDE] gave FPDc of 18.51

FPDc in this record for CC(C)NCC(O)c1ccc(NS(C)(=O)=O)cc1 (centres undefined) : 45.01

* * *

For each record, write down the corresponding FPD measurement.
experiment: Electrical activity assay on cell lines treated with a given drug. DMSO was used as a vehicle and a control, unblinded dofetilide was used as a control.; assay type: cell-based; settings: human, ipsc-cm, 0.1 µM; concentration (um) 0.1 uM
Just the number in FPDc, nothing appended.

Entry CN1CCN(CCCCN2C(=O)CN(/N=C/c3ccc(-c4ccc(Cl)cc4)o3)C2=O)CC1 [AZIMILIDE] — recorded FPD measurement = 47.87

Quick note, FPD measurement for `COc1ccc(CCN2CCC(Nc3nc4ccccc4n3Cc3ccc(F)cc3)CC2)cc1` landed at 77.9

The reported value for COc1cc(N)c(Cl)cc1C(=O)NC1CCN(CCCOc2ccc(F)cc2)CC1OC (stereo unspecified) [CISAPRIDE] in terms of FPD measurement is 92.05

FPD measurement reported for this molecule `COc1ccc([C@@H]2Sc3ccccc3N(CCN(C)C)C(=O)[C@@H]2OC(C)=O)cc1` : 49.22

`CC[C@H]1OC(=O)[C@H](C)[C@@H](O[C@H]2C[C@@](C)(OC)[C@@H](O)[C@H](C)O2)[C@H](C)[C@@H](O[C@@H]2O[C@H](C)C[C@H](N(C)C)[C@H]2O)[C@](C)(OC)C[C@@H](C)C(=O)[C@H](C)[C@@H](O)[C@]1(C)O` yielded FPD measurement of 48.18

So, CC(C)COCC(CN(Cc1ccccc1)c1ccccc1)N1CCCC1 (stereo unspecified) ? Its FPD measurement was 43.71

Numbers sourced from ChEMBL document CHEMBL4295262.
